Entries and their pIC50 values follow.
- system tested: AKT (Homo sapiens, UniProt Q9Y243)
- Construct: Kinases are expressed as either kinase domains or full length constructs; made in house
- Sequence (Q9Y243 whole entry, the tested form may be a part): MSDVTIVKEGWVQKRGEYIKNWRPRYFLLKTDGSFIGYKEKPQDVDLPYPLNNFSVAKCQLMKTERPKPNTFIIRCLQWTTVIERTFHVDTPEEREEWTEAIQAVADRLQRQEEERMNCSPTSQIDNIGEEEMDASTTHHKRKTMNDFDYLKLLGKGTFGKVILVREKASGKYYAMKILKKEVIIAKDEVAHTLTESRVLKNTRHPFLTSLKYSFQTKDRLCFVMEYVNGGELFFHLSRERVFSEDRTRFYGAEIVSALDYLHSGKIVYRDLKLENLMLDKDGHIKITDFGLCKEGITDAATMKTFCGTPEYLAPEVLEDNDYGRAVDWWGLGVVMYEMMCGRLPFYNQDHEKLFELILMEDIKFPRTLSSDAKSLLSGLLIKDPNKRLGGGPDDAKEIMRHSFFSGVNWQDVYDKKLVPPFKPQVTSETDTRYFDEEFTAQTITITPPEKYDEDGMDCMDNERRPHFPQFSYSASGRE
- assay summary: Kinase inhibition assay (33P transfer), AKT
- Assay type: biochemical
- run conditions: Table 2, kinase inhibition class; read-out: AKT3-1
- Excerpt: The inhibitor compounds described herein are screened in the following manner. […] Kinases are expressed as either kinase domains or full length constructs fused to glutathione S-transferase (GST) or polyHistidine tagged fusion proteins in either E. colior Baculovirus-High Five expression systems. […]
pIC50: −log10 of the molar value.

compound=COc1cc(Nc2ncnc(Nc3cc(OC)c(OC)c(OC)c3)n2)cc(OC)n1 system_tested="AKT (Homo sapiens, UniProt Q9Y243)" meas_value="< 4.96"
compound=COc1cc(Nc2ncnc(-c3cccnc3N)n2)cc(OC)c1OC system_tested="AKT (Homo sapiens, UniProt Q9Y243)" meas_value="5.01 to 5.17"
compound=COCCOc1ccc(Nc2ncnc(Nc3ccc(C)c(O)c3)n2)cc1OC system_tested="AKT (Homo sapiens, UniProt Q9Y243)" meas_value="< 4.95"

Task item: For the compound CC1CCc2ccccc2N1c1ncnc(N2c3ccccc3CCC2C)n1 (stereo not shown) , what pIC50 is on record?
Reply: < 4.92

Task item: Try the compound `Cc1ccc2c(c1)CCCN2c1ncnc(NCc2ccccn2)n1`
Reply: < 4.87

* * *

Entries and their IC50 values follow.
- system tested: EGFR (Homo sapiens, UniProt P00533)
- Construct: Kinases are expressed as either kinase domains or full length constructs; made in house
- Sequence (P00533 25-1210, species assumed): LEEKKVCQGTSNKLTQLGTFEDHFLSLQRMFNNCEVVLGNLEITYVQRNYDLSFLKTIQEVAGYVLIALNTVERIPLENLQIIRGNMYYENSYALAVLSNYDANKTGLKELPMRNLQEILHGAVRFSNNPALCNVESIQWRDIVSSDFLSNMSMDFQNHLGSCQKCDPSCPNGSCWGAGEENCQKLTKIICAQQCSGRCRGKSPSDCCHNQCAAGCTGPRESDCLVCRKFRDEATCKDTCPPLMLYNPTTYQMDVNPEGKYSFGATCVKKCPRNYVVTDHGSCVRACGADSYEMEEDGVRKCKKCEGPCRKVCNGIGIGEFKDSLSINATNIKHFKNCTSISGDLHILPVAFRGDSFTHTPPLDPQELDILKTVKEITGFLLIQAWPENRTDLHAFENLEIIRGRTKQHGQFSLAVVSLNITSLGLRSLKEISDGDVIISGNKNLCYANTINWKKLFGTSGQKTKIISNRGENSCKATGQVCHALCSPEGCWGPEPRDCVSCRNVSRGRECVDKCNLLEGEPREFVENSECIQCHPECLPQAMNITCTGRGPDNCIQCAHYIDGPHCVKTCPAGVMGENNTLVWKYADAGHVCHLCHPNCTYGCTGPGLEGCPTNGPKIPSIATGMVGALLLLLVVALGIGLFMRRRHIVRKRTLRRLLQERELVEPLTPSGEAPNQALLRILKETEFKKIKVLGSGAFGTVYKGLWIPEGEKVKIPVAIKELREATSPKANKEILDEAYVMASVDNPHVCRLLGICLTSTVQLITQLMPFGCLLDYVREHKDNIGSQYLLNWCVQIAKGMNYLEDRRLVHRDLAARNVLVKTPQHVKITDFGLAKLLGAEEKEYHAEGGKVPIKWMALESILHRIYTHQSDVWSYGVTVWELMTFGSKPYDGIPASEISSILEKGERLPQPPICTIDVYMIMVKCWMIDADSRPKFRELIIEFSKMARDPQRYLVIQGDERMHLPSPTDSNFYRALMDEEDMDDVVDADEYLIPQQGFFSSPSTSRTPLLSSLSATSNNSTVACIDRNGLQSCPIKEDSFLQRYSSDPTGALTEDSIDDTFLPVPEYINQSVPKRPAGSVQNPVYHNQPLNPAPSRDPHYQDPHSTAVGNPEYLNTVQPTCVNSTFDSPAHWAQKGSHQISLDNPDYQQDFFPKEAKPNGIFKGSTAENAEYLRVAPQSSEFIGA
- assay summary: Kinase inhibition assay (33P transfer), EGFR
- Format: biochemical
- run conditions: Table 2, kinase inhibition class; read-out: EGFR-1

Take a look at these entries with their results.
compound="COc1cc(Nc2ncnc(N)n2)cc(OC)c1OC [Compound 925]" observable=IC50 meas_value="> 16.2 µM"
compound=CC(C)(C)c1cc(Nc2ncnc(Nc3cccc(CC(=O)O)c3)n2)[nH]n1 observable=IC50 meas_value="1.09 to 6.53 µM"
compound=COc1ccc([C@@H](C)Nc2nc3ccccc3n2-c2ncnc(Nc3cc(OC)c(OC)c(OC)c3)n2)cc1 observable=IC50 meas_value="> 8.53 µM"
compound=COc1cc(Nc2ncnc(-n3c(NCc4ccc5c(c4)OCO5)nc4ccccc43)n2)cc(OC)c1OC observable=IC50 meas_value="> 8.53 µM"

Task item: For the compound `COc1ccc(Nc2ncccc2-c2ncnc(Nc3cc(OC)c(OC)c(OC)c3)n2)c(C)c1` , what IC50 is on record?
Reply: > 9.48 µM

Task item: Try the compound `Nc1ncnc(Nc2cc(Cl)ccc2O)n1`
Reply: > 18.9 µM

Task item: Try the compound `COc1cc(Nc2ncnc(-n3c(NCc4ccc(Cl)cc4)nc4ccccc43)n2)cc(OC)c1OC`
Reply: > 8.69 µM

Task item: Try the compound `COc1cc(Nc2ncnc(-n3c(NCCc4ccccn4)nc4ccccc43)n2)cc(OC)c1OC`
Reply: > 9.03 µM

Task item: Try the compound `COc1cc(Nc2ncnc(Nc3cc(C(F)(F)F)ccc3F)n2)cc(OC)c1OC`
Reply: < 0.91 µM

Task item: Try the compound `NCc1ccc(Nc2ncnc(Nc3cc(-c4ccco4)n[nH]3)n2)cc1`
Reply: 1.15 to 6.89 µM

Task item: Try the compound `COc1cc(Nc2ncnc(Nc3ccncc3)n2)cc(OC)c1OC`
Reply: > 12.7 µM

Task item: Try the compound `COc1cc(Nc2ncnc(NC(=O)Nc3ccccc3)n2)cc(OC)c1OC`
Reply: > 11.4 µM

Task item: Try the compound `COc1cc(Nc2ncnc(Nc3cc(-c4cccs4)n[nH]3)n2)cc(OC)c1OC`
Reply: < 0.94 µM

Task item: Try the compound `COc1cc(Nc2ncnc(Nc3nc4ccccc4n3C)n2)cc(OC)c1OC`
Reply: > 11 µM

Task item: Try the compound `COc1cc(Nc2ncnc(Nc3ccc4[nH]ncc4c3)n2)cc(OC)c1OC`
Reply: < 1.02 µM

Task item: Try the compound `CCN(CC)CCOc1ccc(Nc2ncnc(Nc3cc(OC)c(OC)c(OC)c3)n2)cc1OC`
Reply: 0.802 to 4.81 µM
